Test system: Pseudomonas aeruginosa, Escherichia coli, Klebsiella sp., Salmonella sp., Staphylococcus aureus, Enterococcus sp., Bacillus subtilis
Experiment: Antimicrobial activity / minimum inhibitory concentrations on seven strains of bacteria
Type: cell-based
Conditions: seven strains of bacteria
OBSERVATION TYPE: toxicity / antibacterial activity in words

MOLECULE: CCCCOCCOC(=O)C[n+]1ccn(C)c1C
OBS VALUE: non-toxic
//
MOLECULE: CCCCOCCOCCOC(=O)C[n+]1ccn(C)c1
OBS VALUE: non-toxic
//
MOLECULE: COCCOCCOC(=O)C[n+]1ccn(C)c1C.N#C[N-]C#N
OBS VALUE: non-toxic
//
MOLECULE: COCCOCCOC(=O)Cn1cc[n+](C)c1.N#C[N-]C#N
OBS VALUE: non-toxic
//
MOLECULE: CCCCOC(=O)C[n+]1ccn(C)c1
OBS VALUE: non-toxic
//
MOLECULE: CCCCOCCOC(=O)C[n+]1ccn(C)c1C.O=S(=O)([N-]S(=O)(=O)C(F)(F)F)C(F)(F)F
OBS VALUE: non-toxic
//
MOLECULE: CCOCCOCCOC(=O)Cn1cc[n+](C)c1.[Br-]
OBS VALUE: non-toxic
//
MOLECULE: CC(C)OCCOC(=O)Cn1cc[n+](C)c1.[Br-]
OBS VALUE: non-toxic
//
MOLECULE: CCOCCOC(=O)C[n+]1ccn(C)c1.O=S(=O)([N-]S(=O)(=O)C(F)(F)F)C(F)(F)F
OBS VALUE: non-toxic
//
MOLECULE: CCCOCCOC(=O)C[n+]1ccn(C)c1.N#C[N-]C#N
OBS VALUE: non-toxic

Exercise: Reported toxicity / antibacterial activity in words for COCCOCCOC(=O)Cn1cc[n+](C)c1C.O=S(=O)([N-]S(=O)(=O)C(F)(F)F)C(F)(F)F : what is it?
Solution: non-toxic

Exercise: Proceed to CCCCOCCOCCOC(=O)Cn1cc[n+](C)c1.N#C[N-]C#N
Solution: non-toxic

Exercise: Proceed to CCCCCOC(=O)C[n+]1ccn(C)c1
Solution: non-toxic
